Measured values drawn from the RNAGym collection of RNA variant scans (doi:10.1093/molbev/msab373) for this set.

B1: Azoarcus group I ribozyme (parent)
chain: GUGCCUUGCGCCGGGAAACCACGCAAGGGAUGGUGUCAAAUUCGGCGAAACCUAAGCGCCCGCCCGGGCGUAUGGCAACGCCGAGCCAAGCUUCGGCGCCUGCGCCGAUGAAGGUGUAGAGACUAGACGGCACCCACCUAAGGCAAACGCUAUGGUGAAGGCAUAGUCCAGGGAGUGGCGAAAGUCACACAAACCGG

variants of: B1; assay: reverse-splicing fitness (ratio to wild type); higher = more active; in vitro selection; Mg2+ level not given
I would appreciate it if you labelled entries 1.0 when reverse-splicing fitness is 0.006 or higher, otherwise 0.0.

INSERT INTO results (mutationdescriptor, classification) VALUES
  ('A111C A120G A145U C150U C169G', 1.0),
  ('A120C A145C C150G C169G U176A', 1.0),
  ('C82G A111U A120G A145U C150G C169A U176C', 1.0),
  ('C82A A111U A120U A145G C150G C169G U176G', 0.0),
  ('C82U A111U A145C C169G U176G', 0.0),
  ('C82G A111G A120U C150A C169U U176G', 0.0),
  ('A120U A145C C150A C169A U176C', 0.0),
  ('C150U C169U', 1.0),
  ('C82U A120G A145U C150A C169G U176A', 1.0),
  ('C82U A111U A120U C169U U176A', 0.0),
  ('C82A A111U A120G A145G U176G', 1.0),
  ('A145G C150G C169A', 1.0),
  ('A111G A120G A145C C150U C169U U176G', 1.0),
  ('C82U A111G A120C C150U C169A', 1.0),
  ('C82G A145U C150G C169A U176A', 1.0),
  ('C82G A111U A120G C150U C169G U176C', 1.0),
  ('C82G A111C A120C A145U C150A C169A', 1.0),
  ('C82A A111G A120G A145U C150U C169A U176C', 1.0),
  ('A120G C169A U176A', 1.0),
  ('C82A A120U A145G C150U C169A', 1.0),
  ('A111G A120U A145U U176C', 1.0),
  ('A111G A145U C150A U176G', 1.0),
  ('C82G A111U A120G A145G C150A C169G U176A', 1.0),
  ('C82G A111G A120G C150U C169U U176C', 1.0),
  ('C82U A111C A120C A145U C150G C169U U176A', 1.0),
  ('C82G A111C A145C C150U U176G', 1.0),
  ('A111G A120G A145C C150U C169A U176C', 1.0),
  ('C82A A111U A120U A145U C150A C169A', 0.0),
  ('A111G A120C C150G U176G', 0.0),
  ('C82A A111U A120C A145U C150G C169U', 1.0),
  ('A111C A145U C150G C169G U176G', 1.0),
  ('C82A A120G C169A U176G', 0.0),
  ('C82U A120U A145C C150G', 1.0),
  ('C82U A111G A120U A145G C169A U176A', 0.0),
  ('A111G C169U U176G', 1.0),
  ('C82U A145G C150G C169G U176C', 1.0),
  ('C82G A111U A120C A145G C169G U176G', 0.0),
  ('C82A A120G A145C C169U', 1.0),
  ('C82U A111G A120U A145U C150U C169G U176G', 0.0),
  ('C82U A111U A120G A145C U176A', 1.0),
  ('C82G A120G A145C C169G U176A', 1.0),
  ('C82A A111G A120U C150G C169U U176C', 0.0),
  ('C82U A120U A145G C150G C169A U176C', 0.0),
  ('C82U A120C A145C C150A C169A U176A', 1.0);
